Molecular target: RIPK1 (Homo sapiens)
Construct: endogenous in cells; host or cells: HT-29 (KCLB 30038)
Sequence (Q13546 1-671): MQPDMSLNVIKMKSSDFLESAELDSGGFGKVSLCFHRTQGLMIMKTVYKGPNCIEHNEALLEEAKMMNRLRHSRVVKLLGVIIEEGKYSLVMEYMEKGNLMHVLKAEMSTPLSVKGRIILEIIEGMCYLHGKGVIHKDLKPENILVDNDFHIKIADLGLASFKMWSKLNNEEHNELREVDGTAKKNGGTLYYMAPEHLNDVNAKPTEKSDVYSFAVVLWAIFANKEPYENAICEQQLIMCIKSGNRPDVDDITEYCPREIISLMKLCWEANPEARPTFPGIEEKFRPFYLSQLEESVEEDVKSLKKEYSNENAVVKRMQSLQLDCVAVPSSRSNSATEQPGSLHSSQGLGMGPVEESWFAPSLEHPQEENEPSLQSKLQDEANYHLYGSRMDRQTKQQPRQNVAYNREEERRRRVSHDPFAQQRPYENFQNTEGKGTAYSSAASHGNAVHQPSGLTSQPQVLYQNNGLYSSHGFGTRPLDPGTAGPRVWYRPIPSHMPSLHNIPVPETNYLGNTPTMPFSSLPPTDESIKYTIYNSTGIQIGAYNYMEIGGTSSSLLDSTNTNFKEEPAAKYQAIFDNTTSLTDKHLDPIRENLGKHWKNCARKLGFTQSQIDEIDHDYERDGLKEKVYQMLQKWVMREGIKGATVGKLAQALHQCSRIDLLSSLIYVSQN
Experiment: Cell-based necroptosis assay for RIPK1 activity (cell viability by CCK-8)
Conditions: HT-29 cells; Z-VAD-FMK 20 μM, human TNFα 10 ng/ml, SM-164 100 nM; 24 h; read-out: Cell-base RIPK1 activity: Necroptosis
PARAMETER: IC50

- MOLECULE: "CN(C)CCOc1ccc2c(c1)N(C)C(=O)[C@@H](NC(=O)n1cc(Cc3cccc(F)c3)cn1)CO2"
  OBSERVED_VALUE: "10 to 50 nM"
- MOLECULE: "CN1C(=O)[C@@H](NC(=O)n2cc(Cc3cccc(F)c3)cn2)COc2ccc(OCC(=O)n3cc(O[Si](C)(C)C(C)(C)C)cn3)cc21"
  OBSERVED_VALUE: "10 to 50 nM"
- MOLECULE: "CN1C(=O)[C@@H](NC(=O)n2cc(Cc3cccc(F)c3)cn2)COc2ccc(OCc3cnc(Cl)nc3)cc21"
  OBSERVED_VALUE: "< 10 nM"
- MOLECULE: "CN1C(=O)[C@@H](NC(=O)n2cc(Cc3cccc(F)c3)cn2)COc2ccc(OC3CCC(C)(C)CC3)cc21"
  OBSERVED_VALUE: "< 10 nM"
- MOLECULE: "CN1C(=O)[C@@H](NC(=O)n2cc(Cc3cccc(F)c3)cn2)COc2ccc(C(=O)N3CCCCC3)cc21"
  OBSERVED_VALUE: "10 to 50 nM"
- MOLECULE: "CN1C(=O)[C@@H](NC(=O)n2cc(Cc3cccc(F)c3)cn2)COc2ccc(OCC(O)c3ccccn3)cc21 (stereo partly shown)"
  OBSERVED_VALUE: "< 10 nM"
- MOLECULE: "Cc1noc(C)c1COc1ccc2c(c1)N(C)C(=O)[C@@H](NC(=O)n1cc(Cc3cccc(F)c3)cn1)CO2"
  OBSERVED_VALUE: "< 10 nM"
- MOLECULE: "CN1C(=O)[C@@H](NC(=O)n2cc(Cc3cccc(F)c3)cn2)COc2ccc(OCC(=O)N3CC(O)C3)cc21"
  OBSERVED_VALUE: "< 10 nM"
- MOLECULE: "CN1C(=O)[C@@H](NC(=O)n2cc(Cc3cccc(F)c3)cn2)COc2ccc(C(=O)N3CCC(O)C3)cc21 (stereo partly shown)"
  OBSERVED_VALUE: "< 10 nM"
- MOLECULE: "CN1C(=O)[C@@H](NC(=O)n2cc(Cc3cccc(F)c3)cn2)COc2ccc(OCC(=O)N3CC[C@H](O)C3)cc21"
  OBSERVED_VALUE: "10 to 50 nM"
- MOLECULE: "CN(C(=O)c1ccc2c(c1)N(C)C(=O)[C@@H](NC(=O)n1cc(Cc3cccc(F)c3)cn1)CO2)c1ccncc1"
  OBSERVED_VALUE: "10 to 50 nM"
- MOLECULE: "Cc1nnc(COc2ccc3c(c2)N(C)C(=O)[C@@H](NC(=O)n2cc(Cc4cccc(F)c4)cn2)CO3)o1"
  OBSERVED_VALUE: "10 to 50 nM"
- MOLECULE: "CN1C(=O)[C@@H](NC(=O)n2cc(Cc3cccc(F)c3)cn2)COc2ccc(OCC(=O)NCC(C)(C)O)cc21"
  OBSERVED_VALUE: "< 10 nM"
- MOLECULE: "CN1C(=O)[C@@H](NC(=O)n2cc(Cc3cccc(F)c3)cn2)COc2ccc(OCCCc3cccnc3)cc21"
  OBSERVED_VALUE: "< 10 nM"
- MOLECULE: "CN1C(=O)[C@@H](NC(=O)n2cc(Cc3cccc(F)c3)cn2)COc2ccc(OCC(O)c3cccnc3)cc21 (stereo partly shown)"
  OBSERVED_VALUE: "< 10 nM"
- MOLECULE: "CN1C(=O)[C@@H](NC(=O)n2cc(Cc3cccc(F)c3)cn2)COc2ccc(OCC(=O)N3CCC(C)(C)CC3)cc21"
  OBSERVED_VALUE: "< 10 nM"
